Tested on: SF-539
run.description: NCI tumour cell line growth inhibition, 48 h
Calls of active or inactive are those of the source. No stated cut-off is given here; in the data, active = GI50 up to about 1.1 µM and inactive = higher.
Labels: yes (active), no (inactive)

# compound, class.assignment
data = [
    ("CC(=O)CC(=O)CCC(=O)Nc1cccc(C(F)(F)F)c1", "no"),
    ("O=c1[nH]ncc2[nH]c3c4ccccc4ccc3c12", "no"),
    ("COC1(OC)C(/C(N)=C\\O)=NC(C)(C)N1O", "no"),
    ("CCOC(CN(C)C(=S)Nc1cccc2ccccc12)OCC", "no"),
    ("COc1ccccc1-c1cc(=O)c2ccccc2n1C1CC1", "no"),
    ("CN(C)CC/C(=N\\Nc1ccc(Cl)cc1Cl)c1ccccc1", "no"),
    ("CO/N=C(\\C)c1ccc(Nc2nc3ccccc3c3occc23)cc1", "no"),
    ("COc1ccccc1-c1cc(O)c2c(C)ccnc2n1", "no"),
    ("Nc1ncnc2c1ncn2C1CCC(COS(N)(=O)=O)C1 (configuration not stated)", "no"),
    ("CS(=N)(=O)CCC(N)P(=O)(O)O (configuration not stated)", "no"),
    ("COc1ccc2c(c1)CCc1c(-c3n[nH]c4c3CCc3cc(OC)ccc3-4)n[nH]c1-2", "no"),
    ("COC(NC(=O)Nc1ccccc1C)(C(F)(F)F)C(F)(F)F", "no"),
    ("COc1ccc2c(c1)CCN=C2c1ccccc1CCCCl", "no"),
    ("N#Cc1cc2c(n(C3OC(CO)C(O)C(O)C3O)c1=S)CCCCC2 (configuration not stated)", "no"),
    ("O=c1[nH]c(C23CC4CC(CC(C4)C2)C3)cc2c1c(=O)oc1ccccc12", "no"),
    ("CC(/C=C/C(O)=C1/C(=O)CNC1=O)=C\\[C@@H](C)[C@H]1O[C@@]2(C)O[C@H](C(=O)[C@@H]3O[C@@]32C)[C@@H]1C", "no"),
    ("CCCCCCOc1ccc(C(=O)NOC)cc1", "no"),
    ("N#CC(C#N)=C(N)/C(C#N)=C/c1cc(O)c(O)c(Br)c1", "no"),
    ("COC(=O)/C=C1\\CCC(C)(C(=O)NS(=O)(=O)c2ccc(C)cc2)C1(C)C (configuration not stated)", "no"),
    ("CCOc1cc(C2CC(c3ccc(NS(=O)(=O)c4cc([N+](=O)[O-])ccc4C)cc3)=NN2C(=O)c2ccccc2)ccc1O (configuration not stated)", "no"),
    ("CCCCCCCCCCCC(=O)OC[C@@H](C[As](=O)(O)O)OC(=O)CCCCCCCCCCC", "no"),
    ("C/C(=N\\Nc1nc2cc(F)ccc2s1)c1ccccn1", "yes"),
]

Source: ChEMBL document CHEMBL1201862
